Listed here are molecules together with their documented melting point.

The following molecules have reported results that may help.
# Molecule, Value observed
data = [
    ("CC(C)(CCc1noc(=O)[nH]1)c1ccc(C(=O)Nc2cn3cc(C(F)(F)F)ccc3n2)cc1", "268 to 270 °C"),
    ("CCNC(=O)C(C)(C)c1ccc(C(=O)Nc2cn3cc(Cl)ccc3n2)cc1", "228 to 230 °C"),
    ("CC(C)(C)c1ccc(C(=O)Nc2cn3nc(NC4CCNC4)ccc3n2)cc1 (stereo not shown)", "264 to 265 °C"),
]

# ---- query molecule ----
# lookup: melting point of "COC(=O)C(C)(C)c1ccc(C(=O)Nc2cn3c4c(ccc3n2)OCC4)cc1"
235 to 237 °C
